Cited source for all entries: patent US11034759B2

Target: T1, MCSF (Homo sapiens, UniProt P09603)
T1 sequence (P09603 33-255 limits assumed): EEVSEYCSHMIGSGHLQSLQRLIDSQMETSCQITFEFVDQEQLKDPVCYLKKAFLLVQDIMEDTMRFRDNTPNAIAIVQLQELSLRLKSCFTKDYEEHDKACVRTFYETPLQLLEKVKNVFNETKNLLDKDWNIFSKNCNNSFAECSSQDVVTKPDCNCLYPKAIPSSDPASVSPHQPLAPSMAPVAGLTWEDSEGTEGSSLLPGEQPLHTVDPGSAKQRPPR
Assay: Biacore analysis of Human Engineered RX1 antibodies, M-CSF immobilized (Example 13)
Type: binding
Conditions: Table 11, 25° C.
Quantity measured: ka (M⁻¹ s⁻¹)
Your answer is read as M⁻¹ s⁻¹, so omit the unit and give the number.

A selection of reference data follows.
heRX1-3.G2: Human Engineered RX1: light chain Low + Mod Risk (Kabat), heavy chain Low Risk (Kabat), Gamma 2 (antibody, left off: a dimerising Fc or GST) heavy: DVQLQESGPGLVKPSQTLSLTCTVTDYSITSDYAWNWIRQFPGKKLEWMGYISYSGSTSYNPSLKSRITISRDTSKNQFSLQLNSVTAADTATYYCASFDYAHAMDYWGQGTTVTVSS light: EIVLTQSPGTLSVSPGERVTFSCRASQSIGTSIHWYQQKTGQAPRLLIKYASERATGIPDRFSGSGSGTDFTLTISRVESEDFADYYCQQINSWPTTFGQGTKLEIKRT
201000
heRX1-9.G2: Human Engineered RX1: light chain Low + Mod Risk (Germline), heavy chain Low Risk (Kabat), Gamma 2 (antibody, left off: a dimerising Fc or GST) heavy: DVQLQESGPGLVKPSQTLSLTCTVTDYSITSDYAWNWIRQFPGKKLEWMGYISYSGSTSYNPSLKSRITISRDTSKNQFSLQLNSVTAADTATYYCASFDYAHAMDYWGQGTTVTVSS light: DIVLTQSPAFLSVTPGEKVTFTCQASQSIGTSIHWYQQKTDQAPKLLIKYASESISGIPSRFSGSGSGTDFTLTISSVEAEDAADYYCQQINSWPTTFGGGTKLEIKRT
200000
heRX1-7.G2: Human Engineered RX1: light chain Low + Mod Risk (Kabat) − RAT54, 55, 56 to SIS, heavy chain Low Risk (Kabat), Gamma 2 (antibody, V domains shown) VH: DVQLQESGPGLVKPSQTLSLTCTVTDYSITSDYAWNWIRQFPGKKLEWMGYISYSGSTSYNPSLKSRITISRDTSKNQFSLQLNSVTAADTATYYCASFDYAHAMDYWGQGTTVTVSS VL: EIVLTQSPGTLSVSPGERVTFSCRASQSIGTSIHWYQQKTGQAPRLLIKYASESISGIPDRFSGSGSGTDFTLTISRVESEDFADYYCQQINSWPTTFGQGTKLEIK
157000
heRX1-5.G2: Human Engineered RX1: light chain Low Risk (Kabat) − R54 to S, heavy chain Low Risk (Kabat), Gamma 2 (antibody, left off: a dimerising Fc or GST) heavy: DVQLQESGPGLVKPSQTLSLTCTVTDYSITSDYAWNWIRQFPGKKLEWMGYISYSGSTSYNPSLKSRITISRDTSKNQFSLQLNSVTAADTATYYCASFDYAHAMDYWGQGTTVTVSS light: EIVLTQSPGTLSVSPGERVTFSCRASQSIGTSIHWYQQKTGQSPRLLIKYASESISGIPDRFSGSGSGTDFTLTISRVESEDFADYYCQQINSWPTTFGQGTKLEIKRT
175000

Kindly review the next molecule as well.
Q) Which ka is listed for heRX1-8.G2: Human Engineered RX1: light chain Low + Mod Risk (Kabat) − RAT 54, 55, 56 to SIS, heavy chain Low + Mod Risk (Kabat), Gamma 2 (antibody, V domains shown) VH: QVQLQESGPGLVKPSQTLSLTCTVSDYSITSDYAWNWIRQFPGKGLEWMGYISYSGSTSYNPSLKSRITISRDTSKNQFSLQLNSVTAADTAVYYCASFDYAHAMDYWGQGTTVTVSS VL: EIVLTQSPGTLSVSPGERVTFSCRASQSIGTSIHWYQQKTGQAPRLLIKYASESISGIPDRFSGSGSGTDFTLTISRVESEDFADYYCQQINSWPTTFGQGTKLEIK ?
A) 152000
